# system_under_test: HLA-A02.01 (Homo sapiens, UniProt P04439, D140Y/D185E/D98H/E176V/E277Q/G131W/G231S/I119V/I121R/I166T/I218V/L300P/L318F/N151K/N90K/P208A/P217A/Q86G/Q94H/R138H/R169H/T345S)
# measurement_protocol: Class I MHC peptide binding affinity (displacement of radiolabeled reference peptide)
# applied_conditions: allele A02.01; read-out: Observed Affinity (IC50; (nM))
Where a SMILES comes first, the peptide text is derived from it.
Output label 1 for records whose IC50 is lower than 300 nM, label 0 for records at or above 300 nM.

compound="CC(C)C[C@H](NC(=O)[C@@H](N)CC(C)C)C(=O)N[C@@H](CCC(N)=O)C(=O)N[C@H](C(=O)N[C@H](C(=O)N[C@@H](CCC(N)=O)C(=O)N[C@H](C(=O)N[C@@H](CO)C(=O)N[C@@H](Cc1ccccc1)C(=O)N[C@@H](C)C(=O)O)[C@@H](C)O)[C@@H](C)O)C(C)C (H-LLQVTQTSFA-OH; N-terminus and C-terminus assumed)" class_assignment="label 0"
compound="CC(C)C[C@H](NC(=O)[C@H](CCCNC(=N)N)NC(=O)[C@@H](NC(=O)[C@H](CC(C)C)NC(=O)[C@H](CO)NC(=O)[C@@H](N)CCCCN)C(C)C)C(=O)N[C@@H](CO)C(=O)N[C@@H](CO)C(=O)N[C@@H](CS)C(=O)N[C@H](C(=O)O)C(C)C (H-KSLVRLSSCV-OH; N-terminus and C-terminus assumed)" class_assignment="label 1"
compound="CC(C)C[C@H](NC(=O)[C@H](Cc1ccccc1)NC(=O)[C@H](Cc1ccccc1)NC(=O)[C@H](CCCCN)NC(=O)[C@@H]1CCCN1C(=O)[C@H](Cc1c[nH]c2ccccc12)NC(=O)[C@H](CCCCN)NC(=O)[C@@H](NC(=O)[C@H](CC(C)C)NC(=O)[C@@H](N)Cc1ccc(O)cc1)[C@@H](C)O)C(=O)O (H-YLTKWPKFFL-OH; N-terminus and C-terminus assumed)" class_assignment="label 1"
compound="CC[C@H](C)[C@H](NC(=O)[C@H](Cc1ccccc1)NC(=O)[C@H](CS)NC(=O)[C@H](CO)NC(=O)[C@H](CC(N)=O)NC(=O)[C@H](CO)NC(=O)[C@H](C)NC(=O)[C@H](CO)NC(=O)[C@H](CC(C)C)NC(=O)[C@H](C)N)C(=O)O (H-ALSASNSCFI-OH; N-terminus and C-terminus assumed)" class_assignment="label 1"
compound="CC(C)C[C@H](NC(=O)[C@H](CC(C)C)NC(=O)[C@@H](NC(=O)[C@H](CC(=O)O)NC(=O)[C@H](C)NC(=O)[C@H](CC(C)C)NC(=O)[C@@H](N)CS)C(C)C)C(=O)N[C@@H](CO)C(=O)N[C@H](C(=O)O)C(C)C (H-CLADVLLSV-OH; N-terminus and C-terminus assumed)" class_assignment="label 1"

In: # check: IC50 < 300 nM for `CC[C@H](C)[C@H](NC(=O)[C@@H]1CCCN1C(=O)[C@H](CCCNC(=N)N)NC(=O)[C@H](CCCNC(=N)N)NC(=O)[C@H](CC(N)=O)NC(=O)[C@H](CCSC)NC(=O)[C@@H](N)CO)C(=O)N[C@@H](CC(C)C)C(=O)N[C@H](C(=O)O)[C@@H](C)O`
Out: label 0
